- Procedure summary: Pharmacokinetic study in mice (plasma and brain), with estimated free drug concentrations
- Type: in vivo, mouse
- Reported conditions: mouse, sc; plasma; male C57BL/6 mice, s.c. 10 mg/kg; read-out: T1/2z (converted)
Where a name gives a salt, the structure may show the parent alone.
Readout name: half-life (h)

{"Compound": "CCC1CC2CC3c4[nH]c5ccc(O)cc5c4CCN(C2)C13 (stereo not shown) [Noribogaine, Noribogaine hydrochloride]", "Recorded value": 2.76}

---

- Subject of test: UniProt P42866
- Sequence (P42866 whole entry): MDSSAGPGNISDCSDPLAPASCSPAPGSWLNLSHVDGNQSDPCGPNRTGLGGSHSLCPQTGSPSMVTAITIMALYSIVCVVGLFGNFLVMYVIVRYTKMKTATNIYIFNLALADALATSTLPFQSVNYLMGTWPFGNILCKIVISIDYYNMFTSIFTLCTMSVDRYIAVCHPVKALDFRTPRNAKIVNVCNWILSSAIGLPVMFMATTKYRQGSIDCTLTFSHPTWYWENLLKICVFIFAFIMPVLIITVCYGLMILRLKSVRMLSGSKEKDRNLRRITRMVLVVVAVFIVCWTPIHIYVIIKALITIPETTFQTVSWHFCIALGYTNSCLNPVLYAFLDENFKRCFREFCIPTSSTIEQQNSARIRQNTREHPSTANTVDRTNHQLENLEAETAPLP
- Procedure summary: G protein activation BRET assay
- Reported conditions: (95% CI)
Structures can show the parent of a compound that is named as a salt.

{"Molecule": "CCC1CC2CC3c4[nH]c5ccc(O)cc5c4CCN(C2)C13 (stereo not shown) [Noribogaine, Noribogaine hydrochloride]", "Unit of measurement": "µM", "EC50": 9.11}

---

- Procedure summary: Pharmacokinetic study in mice (plasma and brain), with estimated free drug concentrations
- Format: in vivo, mouse
- Reported conditions: male, C57BL/6, mouse, brain, sc, 10 mg/kg, 0.25 h; mice, 10 mg/kg s.c.; individual animals; read-out: Brain Concentration (total)
Where a name gives a salt, the structure may show the parent alone.

{"Molecule": "CCC1CC2CC3c4[nH]c5ccc(O)cc5c4CCN(C2)C13 (stereo not shown) [Noribogaine, Noribogaine hydrochloride]", "Unit of measurement": "µM", "concentration at 0.25 h": 8.04}

---

- Procedure summary: Pharmacokinetic study in mice (plasma and brain), with estimated free drug concentrations
- Format: in vivo, mouse
- Reported conditions: male, C57BL/6, mouse, plasma, sc, 10 mg/kg, 0.25 h; mice, 10 mg/kg s.c.; individual animals; read-out: Free Plasma Concentration
Counter-ions that a name gives are not always drawn.

{"Compound": "CCC1CC2CC3c4[nH]c5ccc(O)cc5c4CCN(C2)C13 (stereo not shown) [Noribogaine, Noribogaine hydrochloride]", "concentration at 0.25 h, nM": 2910}

---

- Procedure summary: Pharmacokinetic study in mice (plasma and brain), with estimated free drug concentrations
- Assay type: in vivo, mouse
- Reported conditions: male, C57BL/6, mouse, plasma, sc, 10 mg/kg, 0.5 h; mice, 10 mg/kg s.c.; individual animals; read-out: Free Plasma Concentration
Counter-ions that a name gives are not always drawn.

{"Molecule": "CCC1CC2CC3c4[nH]c5ccc(O)cc5c4CCN(C2)C13 (stereo not shown) [Noribogaine, Noribogaine hydrochloride]", "concentration at 0.5 h": "3.34 µM"}

---

- Procedure summary: Pharmacokinetic study in mice (plasma and brain), with estimated free drug concentrations
- Format: in vivo, mouse
- Reported conditions: mouse, sc; brain; male C57BL/6 mice, s.c. 10 mg/kg; read-out: VZ/F
Counter-ions that a name gives are not always drawn.

{"Molecule": "CCC1CC2CC3c4[nH]c5ccc(O)cc5c4CCN(C2)C13 (stereo not shown) [Noribogaine, Noribogaine hydrochloride]", "Vd/F": "2.04 L/kg"}

---

- Subject of test: rKOR (Rattus norvegicus, UniProt P34975)
- Construct: signal peptide (N); expressed in transfected cells; host or cells: HEK-293T, transient (PEI)
- Sequence (P34975 whole entry): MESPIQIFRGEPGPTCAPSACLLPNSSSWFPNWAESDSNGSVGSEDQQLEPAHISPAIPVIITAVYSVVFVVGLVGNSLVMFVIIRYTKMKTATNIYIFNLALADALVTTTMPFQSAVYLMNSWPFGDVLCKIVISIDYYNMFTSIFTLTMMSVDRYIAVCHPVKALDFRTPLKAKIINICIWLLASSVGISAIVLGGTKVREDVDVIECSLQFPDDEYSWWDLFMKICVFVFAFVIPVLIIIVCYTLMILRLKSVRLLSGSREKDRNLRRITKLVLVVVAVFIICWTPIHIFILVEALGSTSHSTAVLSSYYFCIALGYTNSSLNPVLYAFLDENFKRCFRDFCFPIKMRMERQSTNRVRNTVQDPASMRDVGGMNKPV
- Procedure summary: G protein activation BRET assay (GαoB)
- Format: cell-based
- Reported conditions: HEK-293T; (95% CI)
pEC50: −log10 of the molar value. Where a name gives a salt, the structure may show the parent alone.
Readout name: pEC50

{"Compound": "CCC1CC2CC3c4[nH]c5ccc(O)cc5c4CCN(C2)C13 (stereo not shown) [Noribogaine, Noribogaine hydrochloride]", "Readout name": "pEC50", "Recorded value": 5.20}
